Test system: MDA-MB-231 multicell spheroids, viability
Assay: Anticancer human tumor MDA-MB-231 cell line growth inhibition [PI3K];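 also: spheroids exposed to agents for seven days before reading; percent of vehicle control luminescence with DMSO treated spheroids as 100%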
Conditions: second compound 0.316 µM; first compound 0.1 µM; stronger effect = lower value
I'd appreciate it if you marked entries Condition met when viability, T/C is lower than 40% and Condition not met when it is not.

- compound: "CNC(=O)c1ccc(N2C(=S)N(c3ccc(C#N)c(C(F)(F)F)c3)C(=O)C2(C)C)cc1F + CC(Nc1ncnc2nc[nH]c12)c1cc2cccc(Cl)c2c(=O)n1-c1ccccc1"
  class.name: "Condition not met"
- compound: "Cn1ncc(Cl)c1-c1cc(C(=O)NC(CN)Cc2cccc(F)c2)sc1Cl (stereo not given) + CC(Nc1ncnc2nc[nH]c12)c1cc2cccc(Cl)c2c(=O)n1-c1ccccc1"
  class.name: "Condition not met"
- compound: "CCN1CCN(Cc2ccc(Nc3ncc(F)c(-c4cc(F)c5nc(C)n(C(C)C)c5c4)n3)nc2)CC1 + COc1c(OCCCN2CCOCC2)ccc2c3n(c(=NC(=O)c4cnc(N)nc4)nc12)CCN3"
  class.name: "Condition met"
- compound: "CC(C)n1nc(-c2ccc3oc(N)nc3c2)c2c(N)ncnc21 + Cc1nc(NC(=O)N2CCCC2C(N)=O)sc1-c1ccnc(C(C)(C)C(F)(F)F)c1"
  class.name: "Condition met"
- compound: "Cn1ncnc1[C@H]1c2n[nH]c(=O)c3cc(F)cc(c23)N[C@@H]1c1ccc(F)cc1 + CC(Nc1ncnc2nc[nH]c12)c1cc2cccc(Cl)c2c(=O)n1-c1ccccc1"
  class.name: "Condition not met"
- compound: "C[C@@H](NC(=O)c1ncnc(N)c1Cl)c1ncc(C(=O)Nc2cc(C(F)(F)F)c(Cl)cn2)s1 + COc1c(OCCCN2CCOCC2)ccc2c3n(c(=NC(=O)c4cnc(N)nc4)nc12)CCN3"
  class.name: "Condition met"
- compound: "Cn1nccc1Nc1nccc(-c2ccn(C(CO)c3ccc(Cl)c(F)c3)c(=O)c2)n1 (stereo not given) + COc1c(OCCCN2CCOCC2)ccc2c3n(c(=NC(=O)c4cnc(N)nc4)nc12)CCN3"
  class.name: "Condition met"
- compound: "CC(C)NCC(C(=O)N1CCN(c2ncnc3c2C(C)CC3O)CC1)c1ccc(Cl)cc1 (stereo not given) + CC(Nc1ccc2c(c1)OCCn1cc(N3C(=O)OCC3C(F)F)nc1-2)C(N)=O"
  class.name: "Condition not met"
- compound: "Cn1ncc(Cl)c1-c1cc(C(=O)NC(CN)Cc2cccc(F)c2)sc1Cl (stereo not given) + CC(Nc1ccc2c(c1)OCCn1cc(N3C(=O)OCC3C(F)F)nc1-2)C(N)=O"
  class.name: "Condition not met"
- compound: "C=CC(=O)N1CCN(c2nc(=O)n(-c3c(C)ccnc3C(C)C)c3nc(-c4c(O)cccc4F)c(F)cc23)C(C)C1 (stereo not given) + Cc1nc(NC(=O)N2CCCC2C(N)=O)sc1-c1ccnc(C(C)(C)C(F)(F)F)c1"
  class.name: "Condition not met"
- compound: "CC(=O)c1c(C)c2cnc(Nc3ccc(N4CCNCC4)cn3)nc2n(C2CCCC2)c1=O + Cc1nc(NC(=O)N2CCCC2C(N)=O)sc1-c1ccnc(C(C)(C)C(F)(F)F)c1"
  class.name: "Condition met"
- compound: "CCN1CCN(Cc2ccc(Nc3ncc(F)c(-c4cc(F)c5nc(C)n(C(C)C)c5c4)n3)nc2)CC1 + CC(Nc1ccc2c(c1)OCCn1cc(N3C(=O)OCC3C(F)F)nc1-2)C(N)=O"
  class.name: "Condition met"
- compound: "CCCS(=O)(=O)Nc1ccc(F)c(C(=O)c2c[nH]c3ncc(-c4ccc(Cl)cc4)cc23)c1F + CC(Nc1ncnc2nc[nH]c12)c1cc2cccc(Cl)c2c(=O)n1-c1ccccc1"
  class.name: "Condition not met"
- compound: "CC1(C)CCC(CN2CCN(c3ccc(C(=O)NS(=O)(=O)c4ccc(NCC5CCOCC5)c([N+](=O)[O-])c4)c(Oc4cnc5[nH]ccc5c4)c3)CC2)=C(c2ccc(Cl)cc2)C1 + CC(Nc1ncnc2nc[nH]c12)c1cc2cccc(Cl)c2c(=O)n1-c1ccccc1"
  class.name: "Condition not met"
- compound: "CC1(C)CCC(CN2CCN(c3ccc(C(=O)NS(=O)(=O)c4ccc(NCC5CCOCC5)c([N+](=O)[O-])c4)c(Oc4cnc5[nH]ccc5c4)c3)CC2)=C(c2ccc(Cl)cc2)C1 + CC(Nc1ccc2c(c1)OCCn1cc(N3C(=O)OCC3C(F)F)nc1-2)C(N)=O"
  class.name: "Condition not met"
- compound: "CC1(C)CCC(CN2CCN(c3ccc(C(=O)NS(=O)(=O)c4ccc(NCC5CCOCC5)c([N+](=O)[O-])c4)c(Oc4cnc5[nH]ccc5c4)c3)CC2)=C(c2ccc(Cl)cc2)C1 + Cc1nc(NC(=O)N2CCCC2C(N)=O)sc1-c1ccnc(C(C)(C)C(F)(F)F)c1"
  class.name: "Condition not met"
- compound: "CC(=O)c1c(C)c2cnc(Nc3ccc(N4CCNCC4)cn3)nc2n(C2CCCC2)c1=O + CC(Nc1ccc2c(c1)OCCn1cc(N3C(=O)OCC3C(F)F)nc1-2)C(N)=O"
  class.name: "Condition met"
- compound: "CC(=O)c1c(C)c2cnc(Nc3ccc(N4CCNCC4)cn3)nc2n(C2CCCC2)c1=O + COc1c(OCCCN2CCOCC2)ccc2c3n(c(=NC(=O)c4cnc(N)nc4)nc12)CCN3"
  class.name: "Condition met"

====

Tested on: MDA-MB-231 multicell spheroids, viability
Assay: Anticancer human tumor MDA-MB-231 cell line growth inhibition [PI3K];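 also: spheroids exposed to agents for seven days before reading; percent of vehicle control luminescence with DMSO treated spheroids as 100%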
Conditions: second compound 0.1 µM; first compound 0.1 µM; stronger effect = lower value
I'd appreciate it if you marked entries condition met when viability, T/C is lower than 80% and condition not met when it is not.

- molecule: "C#Cc1c(F)ccc2cc(O)cc(-c3ncc4c(N5CC6CCC(C5)N6)nc(OCC56CCCN5CC(F)C6)nc4c3F)c12 (stereo unspecified) + Cc1nc(NC(=O)N2CCCC2C(N)=O)sc1-c1ccnc(C(C)(C)C(F)(F)F)c1"
  class.name: "condition not met"
- molecule: "C[C@@H](NC(=O)c1ncnc(N)c1Cl)c1ncc(C(=O)Nc2cc(C(F)(F)F)c(Cl)cn2)s1 + Cc1nc(NC(=O)N2CCCC2C(N)=O)sc1-c1ccnc(C(C)(C)C(F)(F)F)c1"
  class.name: "condition met"
- molecule: "C=CC(=O)N1CCN(c2nc(=O)n(-c3c(C)ccnc3C(C)C)c3nc(-c4c(O)cccc4F)c(F)cc23)C(C)C1 (stereo unspecified) + COc1c(OCCCN2CCOCC2)ccc2c3n(c(=NC(=O)c4cnc(N)nc4)nc12)CCN3"
  class.name: "condition met"
- molecule: "CC(C)n1nc(-c2ccc3oc(N)nc3c2)c2c(N)ncnc21 + CC(Nc1ccc2c(c1)OCCn1cc(N3C(=O)OCC3C(F)F)nc1-2)C(N)=O"
  class.name: "condition met"
- molecule: "CC1(C)CCC(CN2CCN(c3ccc(C(=O)NS(=O)(=O)c4ccc(NCC5CCOCC5)c([N+](=O)[O-])c4)c(Oc4cnc5[nH]ccc5c4)c3)CC2)=C(c2ccc(Cl)cc2)C1 + CC(Nc1ncnc2nc[nH]c12)c1cc2cccc(Cl)c2c(=O)n1-c1ccccc1"
  class.name: "condition not met"

====

Tested on: MDA-MB-231 multicell spheroids, viability
Assay: Anticancer human tumor MDA-MB-231 cell line growth inhibition [PI3K];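 also: spheroids exposed to agents for seven days before reading; percent of vehicle control luminescence with DMSO treated spheroids as 100%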
Settings: second compound 0.316 µM; first compound 1 µM; stronger effect = lower value

- molecule: "Cn1nccc1Nc1nccc(-c2ccn(C(CO)c3ccc(Cl)c(F)c3)c(=O)c2)n1 (stereo not drawn) + COc1c(OCCCN2CCOCC2)ccc2c3n(c(=NC(=O)c4cnc(N)nc4)nc12)CCN3"
  units.text: "%"
  viability, T/C: 17
- molecule: "C[C@@H](NC(=O)c1ncnc(N)c1Cl)c1ncc(C(=O)Nc2cc(C(F)(F)F)c(Cl)cn2)s1 + CC(Nc1ncnc2nc[nH]c12)c1cc2cccc(Cl)c2c(=O)n1-c1ccccc1"
  units.text: "%"
  viability, T/C: 80.5
- molecule: "C=CC(=O)N1CCN(c2nc(=O)n(-c3c(C)ccnc3C(C)C)c3nc(-c4c(O)cccc4F)c(F)cc23)C(C)C1 (stereo not drawn) + COc1c(OCCCN2CCOCC2)ccc2c3n(c(=NC(=O)c4cnc(N)nc4)nc12)CCN3"
  units.text: "%"
  viability, T/C: 31.7

====

Tested on: MDA-MB-231 multicell spheroids, viability
Test: Anticancer human tumor MDA-MB-231 cell line growth inhibition [PI3K];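 also: spheroids exposed to agents for seven days before reading; percent of vehicle control luminescence with DMSO treated spheroids as 100%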
Conditions: second compound 0.01 µM; first compound 10 µM; stronger effect = lower value
The reader will find reported viability, T/C values listed item by item below.

- compound: "CCCS(=O)(=O)Nc1ccc(F)c(C(=O)c2c[nH]c3ncc(-c4ccc(Cl)cc4)cc23)c1F + CC(Nc1ccc2c(c1)OCCn1cc(N3C(=O)OCC3C(F)F)nc1-2)C(N)=O"
  units.text: "%"
  viability, T/C: 29.5
- compound: "CC(C)NCC(C(=O)N1CCN(c2ncnc3c2C(C)CC3O)CC1)c1ccc(Cl)cc1 (stereo not drawn) + COc1c(OCCCN2CCOCC2)ccc2c3n(c(=NC(=O)c4cnc(N)nc4)nc12)CCN3"
  units.text: "%"
  viability, T/C: 43.4
- compound: "CC(C)NCC(C(=O)N1CCN(c2ncnc3c2C(C)CC3O)CC1)c1ccc(Cl)cc1 (stereo not drawn) + CC(Nc1ccc2c(c1)OCCn1cc(N3C(=O)OCC3C(F)F)nc1-2)C(N)=O"
  units.text: "%"
  viability, T/C: 45.2
